testMethodNotes: In vivo pharmacokinetic parameter, half-life (t1/2) was measured in dog after 1 mg/kg iv administration
quantityName: half-life (h)
One number for each entry, in h.

// sample CCO/N=C(\c1ccc(Br)cc1)C1CCN(C2(C)CCN(C(=O)c3c(C)cc[n+]([O-])c3C)CC2)CC1 , its half-life was 10

* * *

In what follows, each item is paired with its pKi for C-C chemokine receptor type 5 (Homo sapiens, UniProt P51681).
Numbers only, as −log10 of the molar value.

Reference set, count: 3
[[record]]
compoundsmiles = "CO/N=C(/c1ccc(Br)cc1)C1CCN(C2(C)CCN(C(=O)c3c(C)cccc3C)CC2)CC1"
systemname = "C-C chemokine receptor type 5 (Homo sapiens, UniProt P51681)"
observed = 7.60

[[record]]
compoundsmiles = "CO/N=C(\\c1ccc(Br)cc1)C1CCN(C2(C)CCN(C(=O)c3c(N)cccc3Cl)CC2)CC1"
systemname = "C-C chemokine receptor type 5 (Homo sapiens, UniProt P51681)"
observed = 8.47

[[record]]
compoundsmiles = "CCO/N=C(\\c1ccc(Br)cc1)C1CCN(C2(C)CCN(C(=O)c3c(C)ccnc3C)CC2)CC1"
systemname = "C-C chemokine receptor type 5 (Homo sapiens, UniProt P51681)"
observed = 8.96


Items follow; give pKi for each.
1. COc1ccc(S(=O)(=O)c2ccc(CC3CCN(C4CCN(C(=O)c5ccc(F)c6ccccc56)CC4)CC3)cc2)cc1
2. Cc1cccc(C)c1C(=O)N1CCC(C)(N2CCC(Oc3ccc(Br)cc3)CC2)CC1
3. CCO/N=C(\c1ccc(Br)cc1)C1CCN(C2(C)CCN(C(=O)c3c(C)cccc3C)CC2)CC1
4. CCO/N=C(/c1ccc(Br)cc1)C1CCN(C2(C)CCN(C(=O)c3c(C)cccc3C)CC2)CC1
5. CO/N=C(/c1ccc(Br)cc1)C1CCN(C2CCN(C(=O)c3c(C)cccc3C)CC2)CC1

[7.18, 7.54, 8.74, 7.32, 8.70]

// sample CO/N=C(\c1ccc(Br)cc1)C1CCN(C2(C)CCN(C(=O)c3c(C)ccnc3C)CC2)CC1 , its pKi was 8.96
